Recorded OD450 by entry
Target Of Assay: T1, Human CD19-his protein (human, UniProt P15391 20-291)
T1 construct: bought protein; also called human CD19 protein; recombinant human CD19-His; not shown: His tag
T1 sequence (looked up): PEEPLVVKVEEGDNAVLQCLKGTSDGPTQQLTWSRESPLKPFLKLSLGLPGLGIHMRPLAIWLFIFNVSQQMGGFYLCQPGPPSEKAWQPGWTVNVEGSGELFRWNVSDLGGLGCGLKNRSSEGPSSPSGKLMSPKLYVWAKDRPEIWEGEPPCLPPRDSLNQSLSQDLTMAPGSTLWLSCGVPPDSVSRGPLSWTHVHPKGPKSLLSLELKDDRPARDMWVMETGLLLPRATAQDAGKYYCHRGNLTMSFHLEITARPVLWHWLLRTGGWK
Test Name: ELISA, antibody at 1.00 nM
Description: Human CD19-his protein (purchased from ACROBiosystems, catalog number: CD9-H52H2) was diluted with PBS to a final concentration of 4 μg/mL, and then added to a 96-well ELISA plate at 100 μl/well. […] The OD450 nm values were read by an ELISA microplate reader (Multimode Plate Reader, EnSight, purchased from Perkin Elmer).
Observable: OD450

>>> number("F5.10.6 (antibody, human IgG1, V domains shown, human-murine chimeric antibody, human IgG1) VH: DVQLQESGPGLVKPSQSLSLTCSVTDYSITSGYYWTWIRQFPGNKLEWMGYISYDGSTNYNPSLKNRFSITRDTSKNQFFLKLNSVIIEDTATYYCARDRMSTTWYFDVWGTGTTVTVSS VL: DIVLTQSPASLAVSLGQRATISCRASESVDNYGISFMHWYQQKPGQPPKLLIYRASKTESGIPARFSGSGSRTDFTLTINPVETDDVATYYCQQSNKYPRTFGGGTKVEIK")
1.48
>>> number("F4.272.13 (antibody, human IgG1, V domains shown, human-murine chimeric antibody, human IgG1) VH: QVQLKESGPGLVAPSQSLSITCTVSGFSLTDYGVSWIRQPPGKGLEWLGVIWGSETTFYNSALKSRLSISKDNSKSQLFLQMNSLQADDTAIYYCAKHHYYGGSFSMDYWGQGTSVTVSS VL: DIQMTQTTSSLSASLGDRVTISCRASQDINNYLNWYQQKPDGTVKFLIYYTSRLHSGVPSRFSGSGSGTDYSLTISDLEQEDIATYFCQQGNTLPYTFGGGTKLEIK")
2.14
>>> number("F6.12.12 (antibody, human IgG1, V domains shown, human-murine chimeric antibody, human IgG1) VH: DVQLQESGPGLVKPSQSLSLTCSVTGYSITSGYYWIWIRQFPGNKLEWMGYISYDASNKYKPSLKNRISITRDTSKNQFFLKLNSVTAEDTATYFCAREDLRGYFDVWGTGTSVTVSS VL: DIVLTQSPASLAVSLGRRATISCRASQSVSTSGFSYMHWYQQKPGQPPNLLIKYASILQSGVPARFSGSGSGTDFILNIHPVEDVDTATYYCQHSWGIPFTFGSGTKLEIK")
0.71
>>> number("F4.107.12 (antibody, human IgG1, V domains shown, human-murine chimeric antibody, human IgG1) VH: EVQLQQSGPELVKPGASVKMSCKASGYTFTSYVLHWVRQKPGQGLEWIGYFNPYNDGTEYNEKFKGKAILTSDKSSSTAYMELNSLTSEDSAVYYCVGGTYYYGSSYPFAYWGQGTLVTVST VL: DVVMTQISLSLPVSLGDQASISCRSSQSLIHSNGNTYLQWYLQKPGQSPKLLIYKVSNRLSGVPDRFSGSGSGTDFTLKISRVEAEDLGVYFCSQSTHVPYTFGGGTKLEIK")
1.93
>>> number("F3.114.12 (antibody, human IgG1, V domains shown, human-murine chimeric antibody, human IgG1) VH: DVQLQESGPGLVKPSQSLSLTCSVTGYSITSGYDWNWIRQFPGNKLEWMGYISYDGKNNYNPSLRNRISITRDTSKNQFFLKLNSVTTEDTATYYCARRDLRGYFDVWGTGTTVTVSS VL: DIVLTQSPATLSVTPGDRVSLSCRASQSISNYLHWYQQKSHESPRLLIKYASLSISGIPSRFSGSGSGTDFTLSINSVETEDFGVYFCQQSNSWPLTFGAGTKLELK")
0.24
